Molecular target: T1, murine IL-21R extracellular domain His-Flag fusion protein (murine, UniProt Q9JHX3 20-237)
T1 construct: Biotinylated in the ELISAs; also called mIL-21R-H/F; murine IL-21R-H/F
Test: SPR, Ab captured on anti-human IgG
Reported values of kon for individual entries
Express it in M⁻¹ s⁻¹; write the number only.

AbO (antibody, human IgG1, V domains shown, CDR3 graft, residue limits derived as for m29; also called VHP/VL16; VHPTM/VL16) VH: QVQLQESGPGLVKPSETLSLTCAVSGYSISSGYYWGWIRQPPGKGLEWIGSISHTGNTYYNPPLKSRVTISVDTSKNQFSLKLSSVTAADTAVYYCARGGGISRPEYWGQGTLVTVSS VL: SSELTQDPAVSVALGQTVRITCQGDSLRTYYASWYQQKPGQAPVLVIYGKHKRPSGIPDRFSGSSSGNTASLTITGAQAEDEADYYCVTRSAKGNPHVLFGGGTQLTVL; 112000
AbU (antibody, human IgG1, V domains shown, CDR3 graft, residue limits derived as for m29; also called VHP/VL25; VHPTM/VL25) VH: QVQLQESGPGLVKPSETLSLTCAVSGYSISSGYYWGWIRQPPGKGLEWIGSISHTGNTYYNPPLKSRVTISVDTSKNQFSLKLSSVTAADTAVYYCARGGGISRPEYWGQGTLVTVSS VL: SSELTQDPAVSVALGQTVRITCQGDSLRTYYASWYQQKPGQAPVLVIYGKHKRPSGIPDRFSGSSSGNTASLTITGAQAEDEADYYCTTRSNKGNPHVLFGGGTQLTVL; 98100

We now examine a further binder.
query: What kon value was documented for this binder, AbT (antibody, human IgG1, V domains shown, CDR3 graft, residue limits derived as for m29; also called VHP/VL9; VHPTM/VL9) VH: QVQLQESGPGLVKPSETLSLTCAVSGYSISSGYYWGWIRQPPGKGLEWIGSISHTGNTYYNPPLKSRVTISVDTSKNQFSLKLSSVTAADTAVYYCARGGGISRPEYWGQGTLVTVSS VL: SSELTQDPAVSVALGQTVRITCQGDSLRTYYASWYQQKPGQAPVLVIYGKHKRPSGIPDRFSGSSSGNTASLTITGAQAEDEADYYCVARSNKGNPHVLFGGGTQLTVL ?
result: 211000
